biological target: CDK6/D3 (Homo sapiens); assay: ADP Glo kinase assay, CDK6/D3; format: biochemical; details: CDK6D3; compound at 10 μM; read-out: residual enzymatic activity (%) at 10 μM
Sequence (Q00534 whole entry, species assumed): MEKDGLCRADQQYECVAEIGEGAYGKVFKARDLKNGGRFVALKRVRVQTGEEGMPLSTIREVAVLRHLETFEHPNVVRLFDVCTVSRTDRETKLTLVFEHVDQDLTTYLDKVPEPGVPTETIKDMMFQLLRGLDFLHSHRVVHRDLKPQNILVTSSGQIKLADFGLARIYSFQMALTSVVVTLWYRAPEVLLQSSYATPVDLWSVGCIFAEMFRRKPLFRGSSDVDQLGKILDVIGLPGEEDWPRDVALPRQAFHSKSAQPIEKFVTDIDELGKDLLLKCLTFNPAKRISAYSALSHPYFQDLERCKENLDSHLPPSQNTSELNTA
Sequence (P30281 whole entry partner, species assumed): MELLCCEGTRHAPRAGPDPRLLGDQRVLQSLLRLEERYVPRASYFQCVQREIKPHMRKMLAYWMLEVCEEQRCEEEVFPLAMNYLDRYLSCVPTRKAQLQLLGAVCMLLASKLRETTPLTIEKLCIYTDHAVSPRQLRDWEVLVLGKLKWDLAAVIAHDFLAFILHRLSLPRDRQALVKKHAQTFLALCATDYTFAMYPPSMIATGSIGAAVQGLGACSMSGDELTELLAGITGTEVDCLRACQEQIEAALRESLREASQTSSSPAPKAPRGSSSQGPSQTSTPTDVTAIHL
Measured remaining activity at 10 µM by item
I only need the number, in %, no unit after it.

CC(=O)N1CCN(c2ccc(Nc3nccc(-c4cnc5ccc(Cl)cn45)n3)nc2)CC1 [Cmpd 9] | 32
CC(=O)N1CCN(c2ccc(Nc3nccc(-c4cnc5ccc(-c6cccnc6)cn45)n3)nc2)CC1 [Cmpd 15] | 91
CC(=O)N1CCN(c2ccc(Nc3nccc(-c4cnc5ccc(-c6cc[nH]c6)cn45)n3)nc2)CC1 [Cmpd 23] | 71

Looking for the measured remaining activity at 10 µM of CC(=O)N1CCN(c2ccc(Nc3nccc(-c4cnc5ccc(-c6cnc(N7CCN(C)CC7)nc6)cn45)n3)nc2)CC1 [Cmpd 20] , can you help?
77

Looking for the measured remaining activity at 10 µM of CC(=O)N1CCN(c2ccc(Nc3nccc(-c4cnc5ccc(Br)cn45)n3)nc2)CC1 [Cmpd 10] , can you help?
36

Looking for the measured remaining activity at 10 µM of c1ccn2c(-c3ccnc(Nc4ccc(N5CCCCC5)cn4)n3)cnc2c1 [Cmpd 5] , can you help?
23

Looking for the measured remaining activity at 10 µM of CC(=O)N1CCCN(c2ccc(Nc3nccc(-c4cnc5ccccn45)n3)nc2)CC1 [Cmpd 6] , can you help?
24

Looking for the measured remaining activity at 10 µM of CC(=O)N1CCN(c2ccc(Nc3nccc(-c4cnc5ccc(-c6ccco6)cn45)n3)nc2)CC1 [Cmpd 12] , can you help?
42

Looking for the measured remaining activity at 10 µM of CC(=O)N1CCN(c2ccc(Nc3nccc(-c4cnc5ccc(-c6cnc(N)nc6)cn45)n3)nc2)CC1 [Cmpd 18] , can you help?
100

# credit: patent US12398132B2
